Values were extracted from paper PMC13110267.

Each entry below carries its reported IC50.
# target-or-test-system: HDAC8 (Homo sapiens, UniProt Q9BY41)
# Sequence (Q9BY41 1-377): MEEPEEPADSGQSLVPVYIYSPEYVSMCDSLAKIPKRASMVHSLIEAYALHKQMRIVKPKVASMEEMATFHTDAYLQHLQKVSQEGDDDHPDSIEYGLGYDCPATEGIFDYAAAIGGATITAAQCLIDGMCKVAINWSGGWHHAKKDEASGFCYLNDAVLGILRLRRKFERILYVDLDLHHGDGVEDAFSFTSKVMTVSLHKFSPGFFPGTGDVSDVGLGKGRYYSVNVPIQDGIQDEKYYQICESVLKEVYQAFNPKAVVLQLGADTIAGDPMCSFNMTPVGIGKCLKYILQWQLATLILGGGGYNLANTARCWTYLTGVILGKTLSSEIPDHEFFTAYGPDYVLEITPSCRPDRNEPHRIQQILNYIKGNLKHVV
# protocol-summary: HDAC8 fluorometric enzyme inhibition assay, purified recombinant enzyme, 10-point dose-response
# measurement-conditions: Table 1; purified recombinant HDAC8 10 nM; mean of three independent experiments; >35 µM = weak inhibitor
# Protocol: Therefore, the first stage of biological evaluation focused on determining inhibitory concentration (IC50) values of the squaric acid derivatives against HDAC8 and HDAC4 using purified recombinant enzymes. Enzymatic inhibition was quantified using 10‐point dose–response assays, from which IC50 values were calculated (Table 1). […] The activity of HDAC1, HDAC4, HDAC6, HDAC8, and HDAC11 was determined using a fluorometric assay in black half-area 96-well microplates (Greiner Bio -One , Germany). […]

Some solved cases for reference:
molecule="CN(Cc1ccccc1)c1c(N(C)Cc2ccccc2)c(=O)c1=O [Compound 14b]" target_or_test_system="HDAC8 (Homo sapiens, UniProt Q9BY41)" result="1.3 µM"
molecule="CCOc1c(N2CCN(C(=O)OC(C)(C)C)CC2)c(=O)c1=O [Compound 12j]" target_or_test_system="HDAC8 (Homo sapiens, UniProt Q9BY41)" result="> 35 µM"

Item `CCOc1c(Nc2ccccc2O)c(=O)c1=O` ; assay system HDAC8 (Homo sapiens, UniProt Q9BY41); IC50 reported as > 35 µM

Item CCOc1c(N2CCOCC2)c(=O)c1=O [Compound 12e] ; assay system HDAC8 (Homo sapiens, UniProt Q9BY41); IC50 reported as > 35 µM

Item `CCOc1c(Nc2ccc(C)cc2)c(=O)c1=O` ; assay system HDAC8 (Homo sapiens, UniProt Q9BY41); IC50 reported as > 35 µM
